test: CEETOX_H295R_OHPROG: CeeTox H295R High-throughput Steroidogenesis Assay for OH-Progesterone (OHPROG) (AID 2283435); conditions: actives raise or lower the signal
Active and inactive are the calls of the source. Rule for the calls: active = hit-call score of the fitted dose curve at least 0.9, where 1 is the maximum; inactive = score below 0.9.
Answer with one of the outcomes given here: active, inactive

These recorded examples may help you get a feel for the data.
# Molecule, Assigned class
measured = [
    ("N#Cc1ccccc1O", "active"),
    ("O=C1c2ccccc2C(=O)c2c(Cl)cccc21", "inactive"),
    ("CCN(CC)c1ccc(N=Nc2ccccc2)cc1", "inactive"),
    ("O=c1[nH]cccc1O", "active"),
    ("CN1CN(C)CN(C)C1", "inactive"),
    ("CCCCCCCCCCCCC[N+](C)(C)Cc1ccccc1", "active"),
]

Prompt line: Tell me the assay call for "O=C(c1ccccc1)c1ccc(Cl)cc1" please.
Response line: active

Prompt line: What is the recorded call for this molecule in the test? "Nc1cccnc1N"
Response line: inactive

Prompt line: Which outcome did this test record for the molecule CCCCC(CC)COC(=O)c1ccc(N(C)C)cc1 (stereo not drawn) ?
Response line: active

Prompt line: What call does the record list for "Cc1cccc(C)n1" ?
Response line: inactive

Prompt line: Short answer needed: outcome of this test for "CCCCCCCCCc1ccc(OCCO)cc1" ?
Response line: inactive

Prompt line: Give the logged outcome of this assay for the following molecule: "CCn1c2ccccc2c2ccccc21"
Response line: active

Prompt line: // param item: OCCC(O)CO (stereo not drawn) ; yields the recorded call
Response line: inactive
